- assaySummary: Metabolic stability in human liver microsomes assessed as intrinsic clearance
- Format: ADME, Microsome
measuredParameter: CLH (mL/min/g)
Numbers only, in mL/min/g.

Go through the items and report each one's CLH.
1. CCOc1nc(Nc2ccc(C(=O)N3C[C@@H](C)O[C@@H](C)C3)cc2OC)nc2[nH]ccc12
2. CCOc1nc(Nc2ccc(C(=O)N3CCOC[C@H]3C)cc2OC)nc2[nH]ccc12
3. CCOc1nc(Nc2ccc(C(=O)N3CCOCC3)cc2OC)nc2[nH]ccc12

A:
1: 1.5; 2: 0.8; 3: 1.1

Form field CLH, entry "CCOc1nc(Nc2ccc(C(=O)N3CCC(F)CC3)cc2OC)nc2[nH]ccc12" : 1.1

* * *

- assaySummary: Unbound fraction in mouse blood
- Type: ADME, tissue-based
measuredParameter: fraction unbound
Numbers only.

Form field fraction unbound, entry "CCOc1nc(Nc2ccc(C(=O)N3CCOCC3)cc2OC)nc2[nH]ccc12" : 0.031

* * *

Task for the reader: assign each of the following molecules its reported solubility at 4 h.
- assaySummary: Solubility of the compound in FaSSIF measured after 4 hrs
- Type: physicochemical
Numbers only, in µg/mL.

The examples below pair each entry with its known result.
>  <structureSmilesString>
CCOc1nc(Nc2ccc(C(=O)N3CCC4(CC3)CN(C)C4)cc2OC)nc2[nH]ccc12

>  <resultNumber>
621

$$$$
>  <structureSmilesString>
CCOc1nc(Nc2ccc(C(=O)N3CCOCC3)cc2)nc2[nH]ccc12

>  <resultNumber>
1.7

$$$$
>  <structureSmilesString>
CCOc1nc(Nc2ccc(C(=O)N3CCC(F)CC3)cc2OC)nc2[nH]ccc12

>  <resultNumber>
39.7

$$$$

Go through the items and report each one's solubility at 4 h.
1. CCOc1nc(Nc2ccc(C(=O)NCC(C)(C)O)cc2OC)nc2[nH]ccc12
2. CCOc1nc(Nc2ccc(C(=O)N3CCOC[C@H]3C)cc2OC)nc2[nH]ccc12

A:
[25.5, 78.8]

* * *

- assaySummary: Ratio of total drug concentration in brain to blood in Han-Wistar rat at 10 mg/kg, po
- Format: ADME, organism-based
measuredParameter: Kp

Form field Kp, entry "CCOc1nc(Nc2ccc(C(=O)N3CCOCC3)cc2OC)nc2[nH]ccc12" : 0.24

* * *

- assaySummary: Unbound fraction in Han-Wistar rat brain at 10 mg/kg, po
- Assay type: ADME, organism-based
measuredParameter: fraction unbound
Give bare numbers.

Form field fraction unbound, entry "CCOc1nc(Nc2ccc(C(=O)N3CCOCC3)cc2OC)nc2[nH]ccc12" : 0.01

* * *

Task for the reader: assign each of the following molecules its reported Ratio.
- assaySummary: Permeability ratio across apical side to basolateral side in MDCK2 cells transfected with Bacmam virus containing human BCRP at 3 uM after 90 mins in presence or absence of GF120918 by transwell assay
- Assay type: ADME, cell-based, Canis lupus familiaris
- runParameters: dog, mdck-ii, 1.5 h
One number for each entry.

The examples below pair each entry with its known result.
>  <structureSmilesString>
CCOc1nc(Nc2ccc(C(=O)N3CCC4(CC3)CN(C)C4)cc2OC)nc2[nH]ccc12

>  <Ratio>
5

$$$$
>  <structureSmilesString>
CCOc1nc(Nc2ccc(C(=O)N3CCOCC3)cc2OC)nc2[nH]ccc12

>  <Ratio>
3.1

$$$$
>  <structureSmilesString>
CCOc1nc(Nc2ccc(C(=O)NCC(C)(C)O)cc2OC)nc2[nH]ccc12

>  <Ratio>
3.8

$$$$

Go through the items and report each one's Ratio.
1. CCOc1nc(Nc2ccc(C(=O)N3CCOC[C@H]3C)cc2OC)nc2[nH]ccc12
2. CCOc1nc(Nc2ccc(C(=O)N3CCOC[C@@H]3C)cc2OC)nc2[nH]ccc12

A:
[2.2, 1.8]
